This collection of values is drawn from patent US20260092076A1.

# SYSTEM: NLRP3 (Homo sapiens)
# Sequence (Q96P20 whole entry): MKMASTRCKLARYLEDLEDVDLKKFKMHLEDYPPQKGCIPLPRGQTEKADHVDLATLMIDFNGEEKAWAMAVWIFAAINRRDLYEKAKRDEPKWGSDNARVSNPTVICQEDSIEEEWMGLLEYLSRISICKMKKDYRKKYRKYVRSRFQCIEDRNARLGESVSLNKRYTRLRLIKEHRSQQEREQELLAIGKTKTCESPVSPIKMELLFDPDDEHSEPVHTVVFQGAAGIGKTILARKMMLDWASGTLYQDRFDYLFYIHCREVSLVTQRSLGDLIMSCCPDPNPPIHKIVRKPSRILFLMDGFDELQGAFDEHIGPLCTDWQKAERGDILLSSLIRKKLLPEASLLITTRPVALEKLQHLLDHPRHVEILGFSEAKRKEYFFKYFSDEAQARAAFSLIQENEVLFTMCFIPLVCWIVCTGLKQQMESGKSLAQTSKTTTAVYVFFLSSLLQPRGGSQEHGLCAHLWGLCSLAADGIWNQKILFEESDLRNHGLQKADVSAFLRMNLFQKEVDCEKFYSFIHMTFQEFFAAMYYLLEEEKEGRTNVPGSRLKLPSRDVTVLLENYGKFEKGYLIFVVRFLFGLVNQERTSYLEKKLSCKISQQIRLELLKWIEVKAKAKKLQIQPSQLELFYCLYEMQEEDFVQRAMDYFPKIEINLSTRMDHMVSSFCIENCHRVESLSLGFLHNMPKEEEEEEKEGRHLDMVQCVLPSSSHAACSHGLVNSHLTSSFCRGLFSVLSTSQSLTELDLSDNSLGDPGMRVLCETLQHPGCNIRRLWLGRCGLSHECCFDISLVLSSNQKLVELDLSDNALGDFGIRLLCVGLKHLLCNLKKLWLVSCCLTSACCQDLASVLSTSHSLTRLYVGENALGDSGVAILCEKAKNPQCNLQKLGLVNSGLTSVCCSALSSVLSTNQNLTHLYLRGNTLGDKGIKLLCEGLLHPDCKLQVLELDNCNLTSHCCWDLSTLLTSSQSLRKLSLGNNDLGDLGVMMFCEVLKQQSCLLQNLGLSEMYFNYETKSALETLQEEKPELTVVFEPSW
# EXPERIMENTAL DETAILS: Human whole blood IL-1β release assay
# Format: cell-based
# CONDITIONS USED: human whole blood with 1 μg/ml LPS, compound 3 hours, nigericin 10 μM 1 hr, IL-1β by AlphaLisa
RECORDED ENDPOINT: pIC50
# log scale: pIC50 equals minus log10 of the concentration in mol/L

Worked cases, answers included:
Cc1cc(C(F)(F)F)cc(O)c1-c1ccc2oc(N3Cc4nccnc4C3)nc2n1; 5.43
Cc1cc(C(F)(F)F)cc(O)c1-c1cnc2oc(N3Cc4cnc(O)cc4C3)nc2n1; 6.89
Cc1cc(C(F)(F)F)cc(O)c1-c1ccc2oc(N3Cc4cc(=O)n(CCO)cc4C3)nc2n1; 6.82

Note: attention shifts to another entry.
Q. Looking for the measured pIC50 of Cc1cc(Cl)cc(O)c1-c1ccc2oc(N3CCc4cc(=O)[nH]cc4C3)nc2n1 , can you help?
A. 6.37
